system: 349418-098-R-PDC complex spheroid viability; assay: Anticancer human tumor 349418-098-R-PDC patient-derived lung adenocarcinoma cell line growth inhibition [RAS]; conditions: second compound 0.00949 µM; first compound 3.16 µM; active compounds read low;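 further: spheroids exposed to compound for seven days before viability readout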
REPORTED_PROPERTY: viability, T/C (%)

* C[C@@H](NC(=O)c1ncnc(N)c1Cl)c1ncc(C(=O)Nc2cc(C(F)(F)F)c(Cl)cn2)s1 + CCn1c(-c2cc(N3CCN(C)CC3)cnc2C(C)OC)c2c3cc(ccc31)-c1csc(n1)CC(NC(=O)C1CC1C)C(=O)N1CCCC(N1)C(=O)OCC(C)(C)C2 | 23.2
* CC(=O)OC12COC1CC(O)C1(C)C(=O)C(O)C3=C(C)C(OC(=O)C(O)C(NC(=O)OC(C)(C)C)c4ccccc4)CC(O)(C(OC(=O)c4ccccc4)C21)C3(C)C (stereo not drawn) + CCn1c(-c2cccnc2C(C)OC)c2c3cc(ccc31)N1CCOC(CC(NC(=O)C(C(C)C)N(C)C(=O)C3(F)CCN(C(=O)C#CC(C)(C)N(C)C)CC3)C(=O)N3CCCC(N3)C(=O)OCC(C)(C)C2)C1 | 17.4
* CC(C)NCC(C(=O)N1CCN(c2ncnc3c2C(C)CC3O)CC1)c1ccc(Cl)cc1 (stereo not drawn) + CCn1c(-c2cccnc2C(C)OC)c2c3cc(ccc31)N1CCOC(CC(NC(=O)C(C(C)C)N(C)C(=O)C3(F)CCN(C(=O)C#CC(C)(C)N(C)C)CC3)C(=O)N3CCCC(N3)C(=O)OCC(C)(C)C2)C1 | 19.6
* CC(=O)OC12COC1CC(O)C1(C)C(=O)C(O)C3=C(C)C(OC(=O)C(O)C(NC(=O)OC(C)(C)C)c4ccccc4)CC(O)(C(OC(=O)c4ccccc4)C21)C3(C)C (stereo not drawn) + CCn1c(-c2cc(N3CCN(C)CC3)cnc2C(C)OC)c2c3cc(ccc31)-c1csc(n1)CC(NC(=O)C1CC1C)C(=O)N1CCCC(N1)C(=O)OCC(C)(C)C2 | 18.8
* NC1c2ccccc2OC12CCN(c1cnc3c(N4CCCc5ncccc54)n[nH]c3n1)CC2 (stereo not drawn) + CCn1c(-c2cccnc2C(C)OC)c2c3cc(ccc31)N1CCOC(CC(NC(=O)C(C(C)C)N(C)C(=O)C3(F)CCN(C(=O)C#CC(C)(C)N(C)C)CC3)C(=O)N3CCCC(N3)C(=O)OCC(C)(C)C2)C1 | 93.6
* CC1(O)CCCC1n1c(=O)c(C(F)F)cc2cnc(NC3CCN(S(C)(=O)=O)CC3)nc21 (stereo not drawn) + CCn1c(-c2cc(N3CCN(C)CC3)cnc2C(C)OC)c2c3cc(ccc31)-c1csc(n1)CC(NC(=O)C1CC1C)C(=O)N1CCCC(N1)C(=O)OCC(C)(C)C2 | 19.6
* CC(Nc1ccc2c(c1)OCCn1cc(N3C(=O)OCC3C(F)F)nc1-2)C(N)=O (stereo not drawn) + CCn1c(-c2cccnc2C(C)OC)c2c3cc(ccc31)N1CCOC(CC(NC(=O)C(C(C)C)N(C)C(=O)C3(F)CCN(C(=O)C#CC(C)(C)N(C)C)CC3)C(=O)N3CCCC(N3)C(=O)OCC(C)(C)C2)C1 | 94.2
* Cc1nc(N2CCC3(CC2)COC(C)C3N)c(CO)nc1Sc1ccnc(N)c1Cl (stereo not drawn) + CCn1c(-c2cccnc2C(C)OC)c2c3cc(ccc31)N1CCOC(CC(NC(=O)C(C(C)C)N(C)C(=O)C3(F)CCN(C(=O)C#CC(C)(C)N(C)C)CC3)C(=O)N3CCCC(N3)C(=O)OCC(C)(C)C2)C1 | 118
